test: protein stability index of a GFP-peptide fusion (yeast GPS) (PSI 1-4); higher = more stable; sorted into four equal gates, so the index is relative within each strain; details: ubr1∆
Below, each entry is listed with its recorded protein stability index.
No unit in the answer, only the number.

Example entries begin here.
1. LLLSRVRADDLSTRFNI [RRP43] = 3
2. TKNGTPNPNNMKTVQSP [GAL11] = 2.91
3. KSDEGGSYLCTSSTPSP [YOR098C/NUP1] = 3.07
4. NTEGSVVYEDSLELEKV [SNF2] = 3.01
5. LFSEKTIRYLMQKQHEM [SNF6] = 2.66

According to the records, this sequence ENNYKKRLLGTAFKSSP [RPS23A] displays protein stability index of 2.44

// sample EKGKKVTGFKDEVLETV [RPS1A] , its protein stability index was 1.37

Documented protein stability index of LYVVGLFDTYHASKAIG [RRP6] : 2.49

The recorded protein stability index for entry RPGRIDRKIEFPPPSVA [RPT6] equals 3.25

Reported protein stability index ( SREAVRHFGMGPHKGKA [RPL18A] ) = 3.66
